The compounds listed here are annotated with their IC50.
molecular target: Jak2 (a.a. 828-1132) (Homo sapiens (Human))
Sequence (O60674 828-1132): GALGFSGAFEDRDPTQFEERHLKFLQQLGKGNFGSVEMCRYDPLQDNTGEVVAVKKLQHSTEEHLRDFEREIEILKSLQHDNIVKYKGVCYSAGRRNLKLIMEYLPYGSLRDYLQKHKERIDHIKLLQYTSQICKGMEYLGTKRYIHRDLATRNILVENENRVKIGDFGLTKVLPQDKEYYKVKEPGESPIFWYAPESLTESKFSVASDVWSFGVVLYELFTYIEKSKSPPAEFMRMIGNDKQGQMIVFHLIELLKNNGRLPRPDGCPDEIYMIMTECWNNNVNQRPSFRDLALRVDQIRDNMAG

Solved cases (10 shown):
compound: N#CCC1(n2cc(-c3ncnc4[nH]ccc34)cn2)CN(C2CCN(C(=O)c3cc4ccccc4s3)CC2)C1
IC50: ≤ 0.01 µM
--
compound: COC(=O)c1cc(F)ccc1NC(=O)N1CCC(N2CC(CC#N)(n3cc(-c4ncnc5[nH]ccc45)cn3)C2)CC1
IC50: ≤ 0.01 µM
--
compound: Cc1nc(C(F)(F)F)ccc1NC(=O)N1CCC(N2CC(CC#N)(n3ccc(-c4ncnc5[nH]ccc45)c3)C2)CC1
IC50: 0.01 to 0.05 µM
--
compound: N#CCC1(n2cc(-c3ncnc4[nH]ccc34)cn2)CN(C2CC3CCC(C2)N3C(=O)c2ccc(Cl)c(F)c2)C1 (stereo not shown)
IC50: ≤ 0.01 µM
--
compound: N#CCC1(n2cc(-c3ncnc4[nH]ccc34)cn2)CN(C2CCN(C(=O)c3c(F)cc(F)cc3F)CC2)C1
IC50: ≤ 0.01 µM
--
compound: N#CCC1(n2ccc(-c3ncnc4[nH]ccc34)c2)CN(C2CCN(C(=O)c3cc(C(F)(F)F)ccc3F)CC2)C1
IC50: ≤ 0.01 µM
--
compound: N#CCC1(n2cc(-c3ncnc4[nH]ccc34)cn2)CN(C2CCN(C(=O)c3cc(F)cc(F)c3)CC2)C1
IC50: 0.01 to 0.05 µM
--
compound: N#CCC1(n2cc(-c3ncnc4[nH]ccc34)cn2)CN(C2CCN(C(=O)c3ccc(-c4nc5ccccc5o4)cc3)CC2)C1
IC50: > 0.1 µM
--
compound: N#CCC1(n2cc(-c3ncnc4[nH]ccc34)cn2)CN(C2CCN(C(=O)c3ccnc(C(F)(F)F)c3F)CC2)C1
IC50: > 0.1 µM
--
compound: CN(C)Cc1cc(C(=O)N2CCC(N3CC(CC#N)(n4cc(-c5ncnc6[nH]ccc56)cn4)C3)CC2)nc(C(F)(F)F)n1
IC50: 0.05 to 0.1 µM

-- ask IC50 for N#CCC1(n2cc(-c3ncnc4[nH]ccc34)cn2)CN(C2CC3CCC(C2)N3C(=O)C2CCC(F)(F)CC2)C1 (stereo not shown) ?
-- reply ≤ 0.01 µM

-- ask Can you check CCOC(=O)N1CCC(N2CC(CC#N)(n3cc(-c4ncnc5[nH]ccc45)cn3)C2)CC1 next?
-- reply 0.01 to 0.05 µM

-- ask Can you check N#CCC1(n2ccc(-c3ncnc4[nH]ccc34)c2)CN(C2CCN(C(=O)Nc3ccc(F)cc3C(F)(F)F)CC2)C1 next?
-- reply 0.05 to 0.1 µM
